Origin of values: patent US20050182040A1

Consider the following IC50 values measured on Rho kinase (Bos taurus, UniProt Q28021).
Sequence (Q28021 whole entry): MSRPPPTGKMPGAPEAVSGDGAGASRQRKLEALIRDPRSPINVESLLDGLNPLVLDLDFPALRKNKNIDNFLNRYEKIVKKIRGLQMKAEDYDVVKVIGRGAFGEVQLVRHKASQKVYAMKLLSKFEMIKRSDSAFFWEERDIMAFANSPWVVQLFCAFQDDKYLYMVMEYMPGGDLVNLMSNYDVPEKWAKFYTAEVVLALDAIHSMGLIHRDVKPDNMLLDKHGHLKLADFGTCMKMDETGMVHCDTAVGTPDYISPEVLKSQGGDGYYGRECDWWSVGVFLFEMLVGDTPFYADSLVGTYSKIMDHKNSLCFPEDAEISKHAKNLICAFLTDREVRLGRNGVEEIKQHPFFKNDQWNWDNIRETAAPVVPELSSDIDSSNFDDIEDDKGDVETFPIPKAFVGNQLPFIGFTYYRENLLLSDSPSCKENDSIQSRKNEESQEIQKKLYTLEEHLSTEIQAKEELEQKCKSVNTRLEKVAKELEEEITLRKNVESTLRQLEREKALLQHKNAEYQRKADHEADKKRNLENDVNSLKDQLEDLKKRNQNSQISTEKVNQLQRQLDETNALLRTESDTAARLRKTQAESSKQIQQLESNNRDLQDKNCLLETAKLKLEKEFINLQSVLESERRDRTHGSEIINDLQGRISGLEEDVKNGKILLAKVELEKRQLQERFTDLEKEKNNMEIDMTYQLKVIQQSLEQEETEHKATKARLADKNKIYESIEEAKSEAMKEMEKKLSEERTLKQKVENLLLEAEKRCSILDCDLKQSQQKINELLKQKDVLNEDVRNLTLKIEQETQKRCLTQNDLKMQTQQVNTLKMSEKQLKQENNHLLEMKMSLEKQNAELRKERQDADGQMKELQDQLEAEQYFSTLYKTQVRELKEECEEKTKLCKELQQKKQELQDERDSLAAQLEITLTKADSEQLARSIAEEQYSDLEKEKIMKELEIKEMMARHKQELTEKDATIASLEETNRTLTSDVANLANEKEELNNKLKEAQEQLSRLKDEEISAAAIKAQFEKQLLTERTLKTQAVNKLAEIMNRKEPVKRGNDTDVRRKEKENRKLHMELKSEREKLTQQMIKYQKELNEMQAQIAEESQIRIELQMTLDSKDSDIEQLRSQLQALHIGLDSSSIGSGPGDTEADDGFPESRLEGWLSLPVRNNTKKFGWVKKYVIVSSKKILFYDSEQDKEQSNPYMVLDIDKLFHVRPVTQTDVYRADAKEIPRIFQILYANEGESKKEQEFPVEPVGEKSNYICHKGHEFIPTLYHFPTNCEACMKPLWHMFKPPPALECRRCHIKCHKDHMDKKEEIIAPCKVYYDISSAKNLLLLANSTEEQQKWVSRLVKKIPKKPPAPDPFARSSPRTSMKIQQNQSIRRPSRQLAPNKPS
Report as: number unit

Examples with their reported IC50 follow.
NC(=O)c1cc(F)c(N[C@H]2CC[C@H](N)CC2)cc1F [Example 162]; 26.4 nM
NC(=O)c1ccc(NC2CCN(Cc3ccccc3)CC2)cc1 [Example 10]; 2000 nM

Okay, next one:
Lookup: Find the measured IC50 of COc1cc(N[C@H]2CC[C@H](N)CC2)c(Cl)cc1C(N)=O [Example 113] with Rho kinase (Bos taurus, UniProt Q28021) as test system.
Found: 21.8 nM

---

Give measured melting point for each item. Keep answers brief.

NC(=O)c1ccc(NC2CCN(Cc3ccccc3)CC2)cc1 [Example 10]; 192 to 193 °C
NC(=O)c1ccc(OC2CCN(Cc3ccccc3)CC2)cc1 [Example 25, 4-[(1-benzylpiperidin-4-yl)oxy]benzamide]; 166 to 168 °C

Report melting point for every entry below.
1. COc1cc(NC2CCN(Cc3ccccc3)CC2)ccc1C(N)=O [Example 28]
2. Cl.NC(=O)c1ccc(NC2CCNCC2)cc1
3. COc1cc(NCc2ccncc2)ccc1C(N)=O [Example 128]
4. NC(=O)c1ccc(NC(=O)C2CCCN(Cc3ccccc3)C2)cc1 (stereo not shown) [Example 13]
5. COc1cc(NCc2ccccc2)ccc1C(N)=O [Example 85, 4-(benzylamino)-2-methoxybenzamide]

Found:
1: 155 to 157 °C; 2: 292 to 294 °C (dec.); 3: 180 to 183 °C; 4: 211 to 212 °C; 5: 175 to 176 °C
